- target.system: Bifunctional ligase/repressor BirA (Staphylococcus aureus)
- Sequence (A0A0E7NXW5 whole entry): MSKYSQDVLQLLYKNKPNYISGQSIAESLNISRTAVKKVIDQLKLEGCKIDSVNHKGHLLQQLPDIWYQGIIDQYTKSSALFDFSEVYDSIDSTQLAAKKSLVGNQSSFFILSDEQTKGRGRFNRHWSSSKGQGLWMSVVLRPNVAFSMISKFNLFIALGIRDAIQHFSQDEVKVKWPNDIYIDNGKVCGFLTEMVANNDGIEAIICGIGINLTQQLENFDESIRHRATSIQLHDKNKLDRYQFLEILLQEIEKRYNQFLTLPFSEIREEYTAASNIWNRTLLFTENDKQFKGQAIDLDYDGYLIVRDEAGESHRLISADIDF
- protocol.text: Inhibition of Staphylococcus aureus biotin protein ligase by LC/MS-SIM analysis

{"columns": ["query.smiles", "target.system", "units.symbol", "Ki"],
 "data": [
  ["Nc1ncnc2c1ncn2CCCCn1cc(CCCCC[C@@H]2SC[C@@H]3NC(=O)N[C@@H]32)nn1", "Bifunctional ligase/repressor BirA (Staphylococcus aureus)", "nM", 660]
]}

----------
- target.system: Acetylcholinesterase (Electrophorus electricus, UniProt O42275)
- Sequence (O42275 whole entry): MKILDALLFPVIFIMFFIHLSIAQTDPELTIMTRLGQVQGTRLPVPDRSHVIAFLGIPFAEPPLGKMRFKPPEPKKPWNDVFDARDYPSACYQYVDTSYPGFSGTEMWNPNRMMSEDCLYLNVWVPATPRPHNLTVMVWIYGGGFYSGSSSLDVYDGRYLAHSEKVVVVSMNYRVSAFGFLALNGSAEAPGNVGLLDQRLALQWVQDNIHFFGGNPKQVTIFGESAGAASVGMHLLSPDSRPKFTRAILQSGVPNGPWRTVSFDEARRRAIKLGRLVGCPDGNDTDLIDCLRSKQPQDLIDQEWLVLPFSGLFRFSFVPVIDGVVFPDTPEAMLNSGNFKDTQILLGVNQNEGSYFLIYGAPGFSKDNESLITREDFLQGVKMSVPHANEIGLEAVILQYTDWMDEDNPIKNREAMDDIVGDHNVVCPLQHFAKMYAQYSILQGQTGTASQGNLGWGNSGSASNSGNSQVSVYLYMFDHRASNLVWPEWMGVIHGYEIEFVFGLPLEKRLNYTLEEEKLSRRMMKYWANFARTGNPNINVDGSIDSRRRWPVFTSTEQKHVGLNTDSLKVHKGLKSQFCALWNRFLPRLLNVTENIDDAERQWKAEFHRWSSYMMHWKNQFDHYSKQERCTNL
recorded.endpoint: Kd

{"columns": ["query.smiles", "recorded.endpoint", "reported"],
 "data": [
  ["CC[N+](C)(CC)CCC[n+]1c(-c2ccccc2)c2cc(N)ccc2c2ccccc21", "Kd", "1.1 µM"]
]}

----------
- target.system: UniProt P11797
- Sequence (P11797 whole entry): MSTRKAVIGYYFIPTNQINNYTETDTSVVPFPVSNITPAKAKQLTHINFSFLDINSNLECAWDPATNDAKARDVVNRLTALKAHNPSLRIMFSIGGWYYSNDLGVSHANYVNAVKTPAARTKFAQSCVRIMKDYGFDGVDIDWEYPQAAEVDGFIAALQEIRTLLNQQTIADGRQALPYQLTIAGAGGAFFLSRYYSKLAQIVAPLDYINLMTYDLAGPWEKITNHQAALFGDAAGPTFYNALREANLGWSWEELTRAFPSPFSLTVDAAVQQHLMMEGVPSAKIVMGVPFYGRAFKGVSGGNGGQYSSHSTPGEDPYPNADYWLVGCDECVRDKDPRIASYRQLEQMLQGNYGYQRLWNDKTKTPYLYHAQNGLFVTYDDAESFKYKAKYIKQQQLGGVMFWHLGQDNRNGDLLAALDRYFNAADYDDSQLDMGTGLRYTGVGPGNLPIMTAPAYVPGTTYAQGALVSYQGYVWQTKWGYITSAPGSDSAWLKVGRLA
- protocol.text: Inhibition of Serratia marcescens 6x-His-tagged ChiB after 20 hrs by LCMS-SIR analysis
pIC50: −log10 of the molar value.

{"columns": ["query.smiles", "pIC50"],
 "data": [
  ["[H]/N=C(/NCCC[C@H](NC(=O)Cn1nncc1CO/N=C/c1ccnc2ccccc12)C(=O)N(Cc1ccccc1)Cc1ccccc1)NC(=O)NC", 7.66]
]}
